ASSAY EXPLANATION: Blood stability studies in freshly collected rat blood
Type: in vitro ADME
Parameters: unit not given here
MEASUREMENT TYPE: Stability in Rat Blood (t1/2) at 37° C.

Some molecules with recorded Stability in Rat Blood (t1/2) at 37° C.:
1) CS(=O)(=O)N1CCN(CCCOc2ccc([C@H]3CC[C@]4(CC3)OOC3(O4)C4CC5CC(C4)CC3C5)cc2)CC1.Cc1ccc(S(=O)(=O)O)cc1 (stereo partly drawn) :: >17
2) CS(=O)(=O)O.NC1CCC(Oc2ccc(C3CCC4(CC3)OOC3(O4)C4CC5CC(C4)CC3C5)cc2)CC1 (stereo not drawn) [OZ537] :: >17

Need Stability in Rat Blood (t1/2) at 37° C. of CS(=O)(=O)O.NC1CCC(Oc2ccc(C3CCC4(CC3)OOC3(O4)C4CC5CC(C4)CC3C5)cc2)CC1 (stereo not drawn) [OZ493] , thanks. >17
